Target: UniProt P28335
Sequence (P28335 whole entry): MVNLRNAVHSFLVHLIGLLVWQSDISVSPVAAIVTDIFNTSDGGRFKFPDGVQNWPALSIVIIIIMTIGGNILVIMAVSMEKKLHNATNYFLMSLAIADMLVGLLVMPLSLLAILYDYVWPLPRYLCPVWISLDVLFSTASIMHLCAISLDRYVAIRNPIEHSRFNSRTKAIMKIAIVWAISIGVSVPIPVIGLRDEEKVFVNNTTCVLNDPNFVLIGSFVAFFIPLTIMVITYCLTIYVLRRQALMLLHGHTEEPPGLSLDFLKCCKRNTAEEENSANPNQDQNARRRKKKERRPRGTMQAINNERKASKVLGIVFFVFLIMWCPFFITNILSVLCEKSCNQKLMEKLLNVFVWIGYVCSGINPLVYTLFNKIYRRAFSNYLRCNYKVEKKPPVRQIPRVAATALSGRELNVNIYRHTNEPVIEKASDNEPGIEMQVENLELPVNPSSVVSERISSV
pKi: −log10 of the molar value.
Literature roundup of UniProt P28335 data, read-out pKi.
Measured Property: pKi

[a] CS(=O)(=O)Nc1cc(F)ccc1C(=O)CCCN1CC[C@H]2[C@@H](C1)c1cccc3c1N2CCCS3
[b] COc1ccc(N2Cc3c(c4cc(F)ccc4n3C)C2=O)cc1OCCN1CCC(C)CC1
[c] Nc1nc(SCCN2CCN(Cc3ccccc3Cl)CC2)nc(N)c1Cc1ccccc1Cl
[d] COc1cc(OC)c(C(=O)CCCCN2CCC3(CC2)NC(=O)NC3=O)cc1NS(=O)(=O)c1ccccc1
Query string: Given 4 molecules, produce a descending ranking by pKi. Answer by writing out the labels in the requested order.
Result string: b, c, d, a
(b: 8.60, c: 8.06, d: 7.50, a: 6.19)

###

Target: 5-hydroxytryptamine receptor 2C (Homo sapiens, UniProt P28335)
Sequence (P28335 whole entry): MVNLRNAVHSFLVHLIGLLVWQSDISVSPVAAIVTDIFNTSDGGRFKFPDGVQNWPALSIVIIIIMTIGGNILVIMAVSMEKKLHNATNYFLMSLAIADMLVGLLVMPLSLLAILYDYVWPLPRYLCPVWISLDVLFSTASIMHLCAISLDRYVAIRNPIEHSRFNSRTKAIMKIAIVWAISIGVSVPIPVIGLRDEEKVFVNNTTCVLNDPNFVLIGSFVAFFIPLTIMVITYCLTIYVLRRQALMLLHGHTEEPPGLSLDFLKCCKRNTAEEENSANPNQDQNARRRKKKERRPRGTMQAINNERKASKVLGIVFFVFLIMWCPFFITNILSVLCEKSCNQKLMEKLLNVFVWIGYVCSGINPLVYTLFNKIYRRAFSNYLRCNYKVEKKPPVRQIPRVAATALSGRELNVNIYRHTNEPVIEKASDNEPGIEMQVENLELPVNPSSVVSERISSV
System: 5-hydroxytryptamine receptor 2C (Homo sapiens, UniProt P28335) | Read-out: Ki | Origin: multiple publications
Measured Property: Ki (µM)

* Cc1ccc2c(c1Br)CCN2C(=O)Nc1ccc(Oc2cccnc2C)nc1 | 0.00158

[P] COc1ccc2c(c1)[C@H]1O[C@@H](CN(C)C)C[C@H]1c1ccccc1O2
[Q] O=C(c1nn2ccccc2c1Cl)N1CCN(CCc2ccc(F)cc2F)CC1
Query string: Decide: P or Q , by lowest recorded Ki. Response format: the label of the selected entry.
Result string: P
(P: 0.235 µM, Q: 0.394 µM)
